Numbers sourced from PubChem BioAssay.

# System tested: L-lactate dehydrogenase (Plasmodium falciparum (isolate CDC / Honduras))
# Assay summary: PfLDH activity inhibition – cell lysate, 3D7 strain, counter-screen for P. falciparum growth inhibition project (AID 2304);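 further: 0% = vehicle and 100% = reference inhibitor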
# Condition set: P. falciparum 3D7 crude extract, LDH APAD/NBT absorbance; at 2 µM; stronger effect = higher value
Metric name: inhibition (%)
Quick note: give the figure in %, leave out the unit.

May I ask what inhibition has been recorded for O=C(c1ccc(-c2ccccn2)s1)N1CCc2cc3nccc(N4CCN5CCC[C@H]5C4)c3cc21 ?
-4

Reported inhibition for Nc1nc(F)nc2nc[nH]c12 : what is it?
-2

I have this molecule here, O=C(Nc1ccc(-c2ccc(-c3nc4ccc(C(F)(F)F)cc4[nH]3)cc2)cc1)Nc1ccc(F)c(F)c1F , and I need its recorded inhibition.
3

Query: inhibition; subject: Cc1ccccc1CNC(=O)Nc1cccc(-c2csc(N=C(N)N)n2)c1
-2

Name the reported inhibition value associated with the molecule COc1ccc2ncc(F)c(CCN3CCC(CNCc4cccc5c4OCO5)CC3)c2n1
-2

====

# Assay summary: human hepatoma cell viability loss – ATP luminescence, cytotoxicity control for P. falciparum antimalarial project, primary screen (AID 2303);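 further: 0% = DMSO wells and 100% = digitonin-killed cells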
# Condition set: HepG2 viability, 24-48 h, at 10 µM, stronger effect = higher value
Metric name: inhibition (%)
Only the number, expressed in %, is required.

Please look up its inhibition: Cc1ccccc1NC1=NC(=S)N(c2cccc(C(F)(F)F)c2)C12CCC(C(C)(C)C)CC2 (configuration not stated)
9

Could you share which inhibition value was measured for CC(C)(C)CC(=O)Nc1ccc(Nc2cc(-c3ccncc3)cc3ncc(C(N)=O)cc23)cc1 ?
5

Would you mind telling me what inhibition value was observed for O=C(Nc1cccc(C(F)(F)F)c1)NC1CCN(c2ccnc3cc(Cl)ccc23)CC1 ?
13

Consider the molecule N#Cc1ccc2c(c1)CCN(CCC1CCC(NC(=O)c3cc4cccc([N+](=O)[O-])c4[nH]3)CC1)C2 (configuration not stated) and give its measured inhibition.
-4

Bench note: what inhibition did CCCOc1cc(NC(=O)Nc2ccnc3ccccc23)cc(OCCC)c1 show?
6

What does the data say about its inhibition? Entry: O=C(Nc1cccc(-c2nn3ccccc3c2-c2ccnc(Nc3cccc(F)c3)n2)c1)c1c(F)ccc(F)c1F
33

Suppose we examine the molecule Cc1ccc(S(=O)(=O)NC2CCN(c3ccnc4cc(Cl)ccc34)C2)cc1 (configuration not stated) ; what inhibition value has been reported?
21

====

For each of the compounds below, state its inhibition.
# Assay summary: human hepatoma cell viability loss – ATP luminescence, cytotoxicity control for P. falciparum antimalarial project, primary screen (AID 2303);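 further: 0% = DMSO wells and 100% = digitonin-killed cells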
# Condition set: HepG2 viability, 24-48 h, at 10 µM, stronger effect = higher value
Give a bare numeral; the unit % is implied.

Bench note: what inhibition did Cc1cccc(NC(c2cccs2)c2c(NC(=O)c3ccccc3)sc(C)c2C)n1 (centres undefined) show?
-8

Value lookup for inhibition; key = CCOc1ncccc1CN1CCC(N2CCc3cc(NC(=O)c4cc(C)on4)ccc32)C1 (centres undefined)
-3

Value lookup for inhibition; key = COc1ccc2nccc(N3CCC(CCNCc4cc5c(cn4)OCCO5)CC3)c2c1
26

Entry COc1ccc2c(NN=Cc3cccc(F)c3)cc(C)nc2c1 has what inhibition?
17

Form field: reported inhibition of COc1ccc(-n2ccnc2)cc1CNC1CCN(CC2Cn3c(=O)ccc4ccc(F)c2c43)CC1 (centres undefined)
25

Tell me the measured inhibition of COc1cc2ncnc(Nc3ccc(OCc4ccccc4)c(OCc4ccccc4)c3)c2cc1OC , please.
4

Look up inhibition for this compound: Cc1ccccc1Nc1nc(NCCc2ccccc2)nc2ccccc12
32

Would you kindly share the measured inhibition for OC(CNCc1ccccc1OCc1ccccc1)c1cccc(C(F)(F)F)c1 (centres undefined) ?
12

Using the record for CN(CCCNCc1cccc2ccccc12)CCCNCc1cccc2ccccc12 , report its inhibition.
93

Consider the compound shown here: CC(C)N1CCN(CCCCNc2c3ccccc3nc3ccccc23)CC1 What is its recorded inhibition?
38

// query inhibition value for entry COc1ccc(CNC2CCN(C)CC2)cc1-c1ccc(S(=O)(=O)NCCc2ccccn2)s1
6

Recorded inhibition for COc1ccc(-c2nonc2NC(=O)c2ccc(C(C)(C)C)cc2)cc1OC , please?
-3

Quick one: inhibition of CN(C)CCNC(=O)NC1CN(c2ncnc3cc(-c4ccccc4)sc23)C1 ?
7

I am curious: what inhibition value has been reported for CC(C)(C)c1ccc(CN2CCC(NC(=O)c3ccc(-c4cccc(Cl)c4)s3)CC2)cc1 ?
36
